METHOD_DESCRIPTION: Inhibition of Shigella sonnei UIH-1 beta-lactamase CTX-M-64 by spectrophotometry in presence of 100 uM nitrocefin
pKi: −log10 of the molar value.
REPORTED_METRIC: pKi

Enquiry: Data request, read-out pKi, for `CC(C)(O/N=C(\C(=O)N[C@@H]1C(=O)N2C(C(=O)[O-])=C(C[n+]3ccccc3)CS[C@H]12)c1csc(N)n1)C(=O)O`
Return: < 2.00

----------
Listed below: Km values for each entry.
Test system: Shigella sonnei
METHOD_DESCRIPTION: Activity at Shigella sonnei UIH-1 beta-lactamase CTX-M-64 by spectrophotometry
Please give a number only; it is taken to be in µM.

Enquiry: Data request, read-out Km, for `CC(=O)OCC1=C(C(=O)O)N2C(=O)[C@@H](NC(=O)Cc3cccs3)[C@H]2SC1`
Return: 37.9

Enquiry: Same read-out for `CO/N=C(\C(=O)N[C@@H]1C(=O)N2C(C(=O)O)=C(COC(C)=O)CS[C@H]12)c1csc(N)n1` ?
Return: 103

Enquiry: Same read-out for `CC1(C)S[C@@H]2[C@H](NC(=O)[C@H](N)c3ccccc3)C(=O)N2[C@H]1C(=O)O` ?
Return: 19.5

Enquiry: Same read-out for `CO/N=C(\C(=O)N[C@@H]1C(=O)N2C(C(=O)[O-])=C(C[N+]3(C)CCCC3)CS[C@H]12)c1csc(N)n1` ?
Return: 505

Enquiry: Same read-out for `O=C(Cc1cccs1)N[C@@H]1C(=O)N2C(C(=O)O)=C(/C=C/c3ccc([N+](=O)[O-])cc3[N+](=O)[O-])CS[C@H]12` ?
Return: 14.8
